Target: UniProt P28335
Sequence (P28335 whole entry): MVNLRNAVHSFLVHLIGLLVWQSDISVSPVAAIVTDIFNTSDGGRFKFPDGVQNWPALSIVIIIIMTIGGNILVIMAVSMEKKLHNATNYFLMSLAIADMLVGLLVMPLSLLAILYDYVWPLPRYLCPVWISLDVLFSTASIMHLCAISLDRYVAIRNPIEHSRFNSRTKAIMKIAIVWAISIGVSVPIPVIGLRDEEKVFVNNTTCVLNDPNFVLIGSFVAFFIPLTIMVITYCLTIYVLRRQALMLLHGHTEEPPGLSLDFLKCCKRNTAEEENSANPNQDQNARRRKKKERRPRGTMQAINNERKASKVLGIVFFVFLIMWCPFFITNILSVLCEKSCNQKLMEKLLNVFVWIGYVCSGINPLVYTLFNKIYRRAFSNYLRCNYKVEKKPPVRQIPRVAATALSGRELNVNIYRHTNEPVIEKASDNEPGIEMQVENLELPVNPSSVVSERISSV
Property label: EC50 (nM)
Just the number please, in nM, no unit attached.

CC(c1ccccc1)c1cc2c(nn1)CCNCC2 (stereo in doubt; 15g) = 190
CC(c1ccccc1)c1cc2c(nn1)CCNCC2 (stereo in doubt; 15h) = 110

Query compound follows.
Query block: Using the record for "Clc1ccccc1Cc1cc2c(nn1)CCNCC2" , report its EC50.
Result block: 310

----------
Biological target: 5-HT2B receptor (Homo sapiens, UniProt P41595)
Sequence (P41595 whole entry): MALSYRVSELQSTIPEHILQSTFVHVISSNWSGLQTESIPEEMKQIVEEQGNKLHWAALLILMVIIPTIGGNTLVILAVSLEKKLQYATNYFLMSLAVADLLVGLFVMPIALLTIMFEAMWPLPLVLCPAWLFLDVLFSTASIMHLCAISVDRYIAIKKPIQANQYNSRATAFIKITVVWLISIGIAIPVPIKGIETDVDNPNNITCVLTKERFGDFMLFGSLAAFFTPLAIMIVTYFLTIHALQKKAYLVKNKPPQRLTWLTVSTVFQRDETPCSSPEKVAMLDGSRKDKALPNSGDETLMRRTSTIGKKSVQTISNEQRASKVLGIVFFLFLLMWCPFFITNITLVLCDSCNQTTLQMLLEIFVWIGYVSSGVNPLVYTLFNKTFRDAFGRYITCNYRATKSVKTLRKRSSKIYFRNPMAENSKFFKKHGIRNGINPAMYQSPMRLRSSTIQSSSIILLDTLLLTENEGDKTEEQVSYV
Assay: in vitro
Description: Agonist activity at recombinant human 5-HT2B receptor transfected in CHOK1 cells assessed as calcium mobilization at 10 uM by FLIPR assay
Property label: Emax at 10 µM (%)
Just the number please, in %, no unit attached.

Worked examples follow.
CC(c1ccccc1)c1cc2c(nn1)CCNCC2 (stereo in doubt; 15g) = 36
c1ccc(Cc2nnc3n2CCNCC3)cc1 = 0
Clc1ccc(Cc2cc3c(nn2)CCNCC3)cc1 = 63

Query block: Give recorded Emax at 10 µM with 5-HT2B receptor (Homo sapiens, UniProt P41595) for the following compound: "c1ccc(Cc2cc3c(nn2)CCNCC3)cc1"
Result block: 29

Query block: Give recorded Emax at 10 µM with 5-HT2B receptor (Homo sapiens, UniProt P41595) for the following compound: "FC(F)(F)c1cccc(Cc2cc3c(nn2)CCNCC3)c1"
Result block: 57

Query block: Give recorded Emax at 10 µM with 5-HT2B receptor (Homo sapiens, UniProt P41595) for the following compound: "O=c1[nH]n(Cc2ccccc2)c2c1CCNCC2"
Result block: 0

Query block: Give recorded Emax at 10 µM with 5-HT2B receptor (Homo sapiens, UniProt P41595) for the following compound: "c1ccc(Cn2cc3c(n2)CCNCC3)cc1"
Result block: 3

Query block: Give recorded Emax at 10 µM with 5-HT2B receptor (Homo sapiens, UniProt P41595) for the following compound: "COc1ccccc1Cc1cc2c(nn1)CCNCC2"
Result block: 40

Query block: Give recorded Emax at 10 µM with 5-HT2B receptor (Homo sapiens, UniProt P41595) for the following compound: "Clc1ccccc1Cc1cc2c(nn1)CCNCC2"
Result block: 41

Query block: Give recorded Emax at 10 µM with 5-HT2B receptor (Homo sapiens, UniProt P41595) for the following compound: "O=c1[nH]c2c(nc1Cc1ccccc1)CCNCC2"
Result block: 24

----------
pEC50: −log10 of the molar value.
UniProt P28335 data, read-out pEC50

Worked examples follow.
COc1ccccc1Cc1cc2c(nn1)CCNCC2 = < 5.00
Fc1ccc(Cc2cc3c(nn2)CCNCC3)cc1 = < 5.00

Query compound follows.
Query block: Give recorded pEC50 with UniProt P28335 for the following compound: "O=c1c2c([nH]n1Cc1ccccc1)CCNCC2"
Result block: < 5.00
